Known B*08:01 In Vitro Score of a selection of sequences
measurement_target: HLA-B*08:01 (Homo sapiens, UniProt P01889, A93T/A95T/D138N/E176V/E187T/K202T/Q94N/R180D/S35A/V36M/Y33D/Y91F)
assay_name: REVEAL Epitope Discovery System in vitro MHC-peptide binding assay
condition_parameters: binding normalized to positive control peptide set at 100%, >50 considered good or high affinity binding
No end group written: not given here.
observable: B*08:01 In Vitro Score

1) FIIFWVLRG 0.20
2) WVQRGNKKL 32.00
3) IFWVQRGNK 0.10
4) VAFIIFWVL 0.00
5) WVLRGRKKL 4.00
6) WVKRGSKKL 56.10
7) IFWVKRGLK 58.30
8) FWVQRGAKK 0.00
9) FWVQRGRKK 1.90
10) AFIIFWVSR 0.30
11) FWVKRGAKK 0.30
12) WVKRGLKKL 65.70
13) IIFWVKRGR 0.00
14) FWVQRGNKK 0.00
15) VAFIIFWVR 0.10
16) FIIFWVKRG 0.10
17) AFIIFWVHR 0.30
18) WVQRGNKKA 0.70
19) WVKRGNKKL 65.90
20) WVHRGRKKL 19.20
21) IFWVQRGRK 0.00
